Tested on: DIPGX7 (H3.3 K27M diffuse intrinsic pontine glioma line)
test: maximal growth inhibition (yFin) relative to DMSO / staurosporine; higher = more efficacious
measurement.name: maximal growth inhibition

>>> observed_value("COCC1(CO)C(=O)C2CCN1CC2 (stereo not drawn) [APR-246]")
"102%"
>>> observed_value("Cc1ccc2nc(NCCN)c3ncc(C)n3c2c1")
"92.7%"
>>> observed_value("CC(C)c1cc(-c2n[nH]c(=O)n2-c2ccc3c(ccn3C)c2)c(O)cc1O [GANETESPIB]")
"44.1%"

====

Tested on: DIPGX9 (diffuse intrinsic pontine glioma line)
test: area under dose-response curve of % growth inhibition (log2 RLU vs DMSO / staurosporine), 1e-11 to 1e-4 M (% x log10 M); higher = more growth inhibition
Binary call on area under dose-response curve: condition met from 300 upward, condition not met beneath that.

>>> class("Nc1ccccc1NC(=O)c1ccc(CNc2nccc(-c3cccnc3)n2)cc1")
"condition not met"
>>> class("COc1ccc(C[C@H](NC(=O)[C@H](C)NC(=O)CN2CCOCC2)C(=O)N[C@@H](Cc2ccccc2)C(=O)C2(C)CO2)cc1 (stereo in doubt)")
"condition not met"
>>> class("CC(C)(C)c1cnc(CSc2cnc(NC(=O)C3CCNCC3)s2)o1")
"condition not met"
>>> class("CC(C(O)c1ccc(O)cc1)N1CCC(Cc2ccccc2)CC1 (stereo not given)")
"condition not met"
>>> class("COc1ccc(-c2nc(N3CCOCC3)c3sc(CN(C)c4ncc(C(=O)NO)cn4)cc3n2)cn1")
"condition met"
